Ref: patent US5597832A

- Tested on: striatal dopamine receptors
- test: animal or person
- Format: in vivo
- test-conditions: Rattus norvegicus, sc, read-out: EC50, rotation behavior
Structures can show the parent of a compound that is named as a salt.
What ED50 was measured for each of the following?
Numeric answer only, unit µmol/kg assumed.

Value of ED50 reported for the compound CCc1cc2c(s1)CN[C@H]1CCc3cc(O)c(O)cc3[C@H]21 (single isomer, unassigned) [Example 4, hydrobromide] is 0.04

ED50 for CCc1cc2c(o1)CN[C@@H]1CCc3cc(O)c(O)cc3[C@@H]21 (relative stereo) [Example 40, hydrochloride] is 0.12

# ED50 of Cc1nc2c(o1)[C@@H]1c3cc(O)c(O)cc3CC[C@H]1NC2 (relative stereo) = 0.33

Quick note, ED50 for CCCc1nc2c(o1)[C@@H]1c3cc(O)c(O)cc3CC[C@H]1NC2 (relative stereo) [Example 29, dihydrobromide] landed at 0.41

Record Cc1cc2c(s1)CN[C@H]1CCc3cc(O)c(O)cc3[C@H]21 (single isomer, unassigned) [Example 23] , field ED50: 0.05
